Each item that follows carries a reported IC50.
Target: KRAS G13D (Homo sapiens, UniProt P01116+P62937, G13D)
Sequence (P01116 1-169 isoform P01116-2 G13D limits assumed): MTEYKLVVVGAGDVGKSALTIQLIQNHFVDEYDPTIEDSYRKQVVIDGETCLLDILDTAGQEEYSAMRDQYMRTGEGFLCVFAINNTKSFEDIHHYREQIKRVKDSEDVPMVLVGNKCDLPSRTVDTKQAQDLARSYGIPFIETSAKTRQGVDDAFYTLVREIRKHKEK
Sequence (P62937 whole entry): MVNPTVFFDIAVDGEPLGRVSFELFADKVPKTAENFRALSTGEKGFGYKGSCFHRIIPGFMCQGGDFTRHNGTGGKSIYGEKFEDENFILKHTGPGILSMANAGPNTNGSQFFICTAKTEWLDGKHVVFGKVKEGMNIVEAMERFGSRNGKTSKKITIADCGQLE
Assay: Ras-Raf disruption / FRET / MOA assay (BRAF RBD)
Type: biochemical
Details: Ras-Raf disruption, with Cyclophilin A; read-out: KRAS G13D FRET data IC50

COMPOUND: CCn1c(-c2cccnc2[C@H](C)OC)c2c3cc(ccc31)-c1cc(O)cc(c1)C[C@H](NC(=O)[C@H](C(C)C)N(C)C(=O)N1C[C@@H]3[C@H]1CCN3C(=O)[C@H]1CN1)C(=O)N1CCC[C@H](N1)C(=O)OCC(C)(C)C2 (atropisomer, axis not shown)
IC50: 1000 to 10000 nM

COMPOUND: CCn1c(-c2cccnc2[C@H](C)OC)c2c3cc(ccc31)-c1csc(n1)C[C@H](NC(=O)[C@H](C(C)C)N(C)C(=O)N(C)[C@H]1CCCN(C(=O)[C@H]3CN3)C1)C(=O)N1CCC[C@H](N1)C(=O)OCC(C)(C)C2 (atropisomer, axis not shown)
IC50: 1000 to 10000 nM

COMPOUND: CCn1c(-c2cccnc2[C@H](C)OC)c2c3cc(ccc31)-c1cc(O)cc(c1)C[C@H](NC(=O)[C@H](C(C)C)N1CCC3(CCN(C(=O)[C@H]4CN4)C3)C1=O)C(=O)N1CCC[C@H](N1)C(=O)OCC(C)(C)C2 (some centres unmarked)
IC50: 100 to 1000 nM

COMPOUND: CCn1c(-c2cccnc2[C@H](C)OC)c2c3cc(ccc31)-c1csc(n1)C[C@H](NC(=O)[C@H](C(C)C)N(C)C(=O)N1CCC[C@H](N(C)C(=O)[C@@H]3CN3)C1)C(=O)N1CCC[C@H](N1)C(=O)OCC(C)(C)C2 (atropisomer, axis not shown)
IC50: 1000 to 10000 nM

COMPOUND: CCn1c(-c2cccnc2[C@H](C)OC)c2c3cc(ccc31)-c1cc(O)cc(c1)C[C@H](NC(=O)[C@H](C(C)C)N(C)C(=O)N1CCN(C(=O)[C@H]3CN3)C(=O)C1)C(=O)N1CCC[C@H](N1)C(=O)OCC(C)(C)C2
IC50: 10 to 100 nM

Annotate the compound CCn1c(-c2cccnc2[C@H](C)OC)c2c3cc(ccc31)-c1cc(cc(C(F)F)c1)C[C@H](NC(=O)[C@H](C1CCCC1)N1CC[C@]3(CCN(C(=O)[C@@H]4N[C@@H]4C4CC4)C3)C1)C(=O)N1CCC[C@H](N1)C(=O)OCC(C)(C)C2 with its measured IC50.
1000 to 10000 nM

Annotate the compound CCn1c(-c2cccnc2[C@H](C)OC)c2c3cc(ccc31)-c1cc(O)cc(c1)C[C@H](NC(=O)[C@H](C(C)C)N(C)C(=O)CN(C)S(=O)(=O)[C@H]1CN1C)C(=O)N1CCC[C@H](N1)C(=O)OCC(C)(C)C2 (single isomer, unassigned) with its measured IC50.
100 to 1000 nM

Annotate the compound CCn1c(-c2cccnc2[C@H](C)OC)c2c3cc(ccc31)-c1cc(O)cc(c1)C[C@H](NC(=O)[C@H](C(C)C)N(C)C(=O)N1CC[C@H](N(C)C(=O)[C@@H]3CN3)C1)C(=O)N1CCC[C@H](N1)C(=O)OCC(C)(C)C2 (atropisomer, axis not shown) with its measured IC50.
100 to 1000 nM
